The measured values listed here are drawn from paper PMC6032158.

Consider the following compounds and their measured Motor Activity Reduction (%) Significant F readings.
Test system: 49-day-old S. mansoni adult worms
Experiment: In vitro experiments with adult worms of S. mansoni (mortality, motor activity)
Assay type: cell-based, Schistosoma mansoni
Details: 10 µM, 96 h, female worms
EXPERIMENTAL_ENDPOINT: Motor Activity Reduction (%) Significant F

INSERT INTO measurements (compound, value) VALUES
  ('COc1cc(/C=C/C(=O)N(C(=O)NC2CCCCC2)C2CCCCC2)cc(OC)c1OC', 0),
  ('COc1cc(/C=C/C(=O)N2CCC=CC2=O)cc(OC)c1OC', 100),
  ('O=C(/C=C/c1ccc2c(c1)OCO2)N1CCCC1 [Compound 14B]', 0),
  ('COc1cc(/C=C/C(=O)N2CCCC2)cc(OC)c1OC', 0),
  ('O=C(/C=C/c1ccc([N+](=O)[O-])cc1)N(C(=O)NC1CCCCC1)C1CCCCC1', 0);

====

Consider the following molecules and their measured Motor Activity Reduction (%) Significant F readings.
Tested on: 49-day-old S. mansoni adult worms
Experiment: In vitro experiments with adult worms of S. mansoni (mortality, motor activity)
Type: cell-based, Schistosoma mansoni
Conditions: 5 µM, 24 h, female worms
Experimental: The Belo Horizonte (BH) strain of S. mansoni was maintained in Biomphalaria glabrata snails and Mesocricetus auratus hamsters at the Adolfo Lutz Institute (São Paulo, Brazil) according to standard procedures. […] Cultures of adult worms were monitored by microscopy or magnifying glass. The effect of the drug was assessed with emphasis on changes in worm motor activity and death of worms as previously described.
EXPERIMENTAL_ENDPOINT: Motor Activity Reduction (%) Significant F

INSERT INTO measurements (molecule, unit_of_measurement, value) VALUES
  ('COc1cc(/C=C/C(=O)N(C(=O)NC2CCCCC2)C2CCCCC2)cc(OC)c1OC', '%', 0),
  ('COc1cc(/C=C/C(=O)N2CCC=CC2=O)cc(OC)c1OC', '%', 0),
  ('COc1cc(/C=C/C(=O)N2CCCC2)cc(OC)c1OC', '%', 0),
  ('O=C(/C=C/c1ccc2c(c1)OCO2)N1CCCC1 [Compound 14B]', '%', 0);

====

Consider the following molecules and their measured Dead Worms (%) F readings.
Tested on: 49-day-old S. mansoni adult worms
Experiment: In vitro experiments with adult worms of S. mansoni (mortality, motor activity)
Assay type: cell-based, Schistosoma mansoni
Settings: 25 µM, 96 h, female worms
EXPERIMENTAL_ENDPOINT: Dead Worms (%) F

INSERT INTO results (molecule, experimental_endpoint, value) VALUES
  ('COc1cc(/C=C/C(=O)N2CCCC2)cc(OC)c1OC', 'Dead Worms (%) F', 0),
  ('O=C(/C=C/c1ccc([N+](=O)[O-])cc1)N(C(=O)NC1CCCCC1)C1CCCCC1', 'Dead Worms (%) F', 0),
  ('COc1cc(/C=C/C(=O)N(C(=O)NC2CCCCC2)C2CCCCC2)cc(OC)c1OC', 'Dead Worms (%) F', 0),
  ('O=C(/C=C/c1ccc2c(c1)OCO2)N1CCCC1 [Compound 14B]', 'Dead Worms (%) F', 0);
